Each item that follows carries a reported TGI.
system: SR leukemia; experiment: NCI tumour cell line growth inhibition, 48 h

compound	system-tested	TGI
Brc1cccc(C2SCc3nc4ccccc4n32)c1 (configuration not stated)	SR leukemia	57.7 µM
CCCCCCCSc1nc2c(C(=O)OCC)ncn2c2ccccc12	SR leukemia	> 100 µM
COc1nc2c(c(=O)n1C)N(C(C)=O)C1C(N2)OCC(OC(C)=O)C1OC(C)=O (configuration not stated)	SR leukemia	> 10 µM
CC(=O)OC1CCn2nnc(CO[Si](C)(C)C(C)(C)C)c21 (configuration not stated)	SR leukemia	> 100 µM
COc1cccc(NC(=O)c2sc3nc4c(cc3c2N)CN(Cc2ccccc2)CC4)c1	SR leukemia	47.7 µM
CC1C(c2ccccc2)OP(=O)(OC(C#N)c2ccccc2)N1C (configuration not stated)	SR leukemia	> 100 µM
CCOC(=O)CSc1nc(-c2ccccc2)c(C#N)c(=O)[nH]1	SR leukemia	> 100 µM
N#Cc1c(N)oc(-c2cccc([N+](=O)[O-])c2)c1C#N	SR leukemia	> 100 µM
CC(CN1CCN(CCOCCO)CC1)CN1c2ccccc2Sc2ccc(Cl)cc21 (configuration not stated)	SR leukemia	16.5 µM
CCCN(C(=O)c1c(Cl)nnc(Cl)c1C(=O)c1cc(Cl)nnc1Cl)c1cc(Cl)nnc1Cl	SR leukemia	20.3 µM
O=C(N=S(NC(=O)c1ccccc1)C(Cl)(Cl)Cl)c1ccccc1 (configuration not stated)	SR leukemia	> 73.4 µM
CCOC(=O)C1=C(O)C(=O)c2ccsc2C1=O	SR leukemia	> 100 µM
